assay-comment: reduction of Shn3 3'UTR-driven luciferase in osteoblasts – cell-based, Clone20 osteoblasts, firefly luciferase, cherry-picked, dose response (AID 624132);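 also: firefly luciferase luminescence from reporter carrying the Shn3 3'UTR in osteoblasts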
Type: functional
Activity calls are given as the source filed them.
AC50 by entry:

O=[N+]([O-])c1c(NCCO)cc(Sc2nc3ccccc3s2)c2nonc12	1.64 µM (active)

Memo: CC(C)[C@H](NC(=O)OC(C)(C)C)c1nnc(S(=O)(=O)Cc2c(F)cccc2Cl)o1 , reported AC50: 1.08 µM (active)

Memo: CCN(CC)S(=O)(=O)c1ccc(NC(=O)Nc2cccc(C(F)(F)F)c2)cc1 , reported AC50: 5.6 µM (active)

Memo: CCOC(=O)c1c(C)[nH]c2c1-c1ccccc1C(=O)C2=O , reported AC50: 0.496 µM (active)

Memo: CCc1ccc(Nc2n[n+](-c3ccccc3)c(-c3c(Cl)cccc3Cl)s2)cc1 , reported AC50: 5.4 µM (active)

Memo: CCOC(=O)COc1ccc2ccccc2c1/C=C/[N+](=O)[O-] , reported AC50: 5.2 µM (active)

----------
Tested on: BJ
assay-comment: BJ-TERT fibroblast viability loss – cell-based, RAS-independent, luminescence, dose response (AID 1933)
Type: functional
conditions-used: Homo sapiens
Calls of active or inactive are those of the source.
EC50 by entry:

Memo: COc1ccc(S(=O)(=O)Nc2cc3c(C(C)=O)c(C)oc3c3ccccc23)cc1 , reported EC50: 1590 nM (active)

Memo: O=C(CCl)Nc1ccc(Oc2cnc3ccccc3n2)cc1 , reported EC50: 6360 nM (active)

----------
test-target: Ubiquitin-conjugating enzyme E2 N (Homo sapiens);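 also: Dose-response confirmation in a TR-FRET assay detecting UBC13-driven polyubiquitin chain formation, inhibition measured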
Sequence (P61088 whole entry): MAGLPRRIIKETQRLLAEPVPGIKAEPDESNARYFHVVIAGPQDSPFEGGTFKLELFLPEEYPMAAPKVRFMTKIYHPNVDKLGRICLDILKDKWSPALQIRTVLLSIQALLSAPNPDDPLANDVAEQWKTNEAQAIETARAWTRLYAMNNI
Type: functional
Calls of active or inactive are those of the source.
Bench note: report the call from label 1 (active), label 0 (inactive)

O=C(NCC1CCN(Cc2ccccc2F)CC1)C1CCCN(c2ncnc3c2nc2n3CCCCC2)C1 (centres undefined)	label 0
COc1ccc2[nH]cc(CCNC(=O)Nc3ccccc3)c2c1	label 0
COc1ccc(N(C(=O)c2snc(C(N)=O)c2N)C(C(=O)NC2CCCC2)c2ccco2)cc1 (centres undefined)	label 1

Now look at this entry.
Prompt: Returns: the outcome recorded for CCOC(=O)C1=C(c2ccccc2)N=C(N)NC1c1ccc(OCc2ccc(Cl)cc2)c(OC)c1 (centres undefined) in this assay.
Completion: label 0

----------
test-target: Leucine aminopeptidase (Plasmodium falciparum 3D7, UniProt Q8IL11)
Sequence (Q8IL11 whole entry): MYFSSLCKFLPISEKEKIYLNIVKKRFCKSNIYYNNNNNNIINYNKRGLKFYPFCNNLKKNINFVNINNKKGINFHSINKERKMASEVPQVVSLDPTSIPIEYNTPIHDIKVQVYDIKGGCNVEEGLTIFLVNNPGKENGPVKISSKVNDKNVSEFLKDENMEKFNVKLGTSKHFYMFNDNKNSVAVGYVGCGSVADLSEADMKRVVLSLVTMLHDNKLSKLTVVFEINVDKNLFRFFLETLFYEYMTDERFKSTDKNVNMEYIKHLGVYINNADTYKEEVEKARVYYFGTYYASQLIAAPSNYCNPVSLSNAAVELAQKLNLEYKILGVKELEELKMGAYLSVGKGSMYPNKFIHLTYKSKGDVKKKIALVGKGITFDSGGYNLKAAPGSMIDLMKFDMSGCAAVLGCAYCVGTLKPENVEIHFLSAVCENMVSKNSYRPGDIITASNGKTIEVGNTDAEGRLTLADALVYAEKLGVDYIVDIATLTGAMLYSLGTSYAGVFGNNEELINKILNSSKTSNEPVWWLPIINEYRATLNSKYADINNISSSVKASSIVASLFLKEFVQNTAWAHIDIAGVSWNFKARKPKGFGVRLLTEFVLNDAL
assay-comment: P. falciparum M17LAP inhibitors, primary screen, biochemical, fluorogenic H-Leu-NHMec substrate, 1536-well (AID 1619)
Assay type: functional
Calls of active or inactive are those of the source.
measured-property: IC50

Below: 3 molecules and their reported IC50.
COc1ccc(-n2c(SCC(=O)Nc3ccc(C(=O)O)cc3)nnc2-c2cccs2)cc1	14.5 µM (active)
CCOC(=O)c1ccc(NC(=O)C2C3CCC(C3)C2C(=O)O)cc1 (centres undefined)	20 µM (active)
CCOc1ccc(OCc2cccc(C(=O)O)c2)cc1	24.8 µM (active)

Memo: N#CC1=C(N)Oc2[nH]nc(-c3ccc(F)cc3)c2C1c1ccncc1 (centres undefined) , reported IC50: 94.3 µM (active)

----------
test-target: Short transient receptor potential channel 4 (Mus musculus, UniProt Q9QUQ5)
Sequence (Q9QUQ5 whole entry): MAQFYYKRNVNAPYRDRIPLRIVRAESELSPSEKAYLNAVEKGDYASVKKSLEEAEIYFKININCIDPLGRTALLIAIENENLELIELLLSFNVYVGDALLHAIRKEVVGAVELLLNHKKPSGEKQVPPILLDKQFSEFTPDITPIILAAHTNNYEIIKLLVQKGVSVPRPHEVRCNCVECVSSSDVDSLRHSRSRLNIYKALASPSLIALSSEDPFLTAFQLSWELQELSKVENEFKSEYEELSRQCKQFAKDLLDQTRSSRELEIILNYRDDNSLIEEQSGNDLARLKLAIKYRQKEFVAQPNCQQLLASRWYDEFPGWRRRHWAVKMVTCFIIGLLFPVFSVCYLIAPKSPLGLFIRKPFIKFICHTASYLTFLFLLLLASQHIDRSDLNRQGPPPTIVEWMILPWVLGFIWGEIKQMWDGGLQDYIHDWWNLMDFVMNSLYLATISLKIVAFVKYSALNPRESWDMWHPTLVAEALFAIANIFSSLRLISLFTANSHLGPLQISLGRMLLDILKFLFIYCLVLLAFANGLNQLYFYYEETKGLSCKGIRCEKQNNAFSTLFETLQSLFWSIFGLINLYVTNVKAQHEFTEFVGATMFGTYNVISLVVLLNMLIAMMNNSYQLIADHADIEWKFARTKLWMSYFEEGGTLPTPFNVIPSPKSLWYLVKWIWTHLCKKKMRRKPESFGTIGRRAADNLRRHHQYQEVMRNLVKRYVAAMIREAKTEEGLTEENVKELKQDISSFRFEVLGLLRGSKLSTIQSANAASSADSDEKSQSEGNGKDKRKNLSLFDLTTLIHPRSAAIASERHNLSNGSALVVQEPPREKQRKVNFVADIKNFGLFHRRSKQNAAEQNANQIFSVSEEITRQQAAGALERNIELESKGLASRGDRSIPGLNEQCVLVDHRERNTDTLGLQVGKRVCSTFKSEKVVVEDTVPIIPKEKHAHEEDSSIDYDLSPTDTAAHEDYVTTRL
assay-comment: calcium entry via TRPC4 opening agents – cell-based, HEK293 TRPC4/mu-opioid, Fluo-4 calcium, dose response (AID 434937)
Assay type: functional
The source made the active and inactive calls.
EC50 by entry:

Below: 2 compounds and their reported EC50.
COc1ccccc1N1CCN(C(c2cccs2)C(C)NC(=O)c2cccs2)CC1 (stereo not drawn)	0.335 µM (active)
Cc1ccc2c(nc3s/c(=C\c4ccc(-c5ccccc5C(=O)O)o4)c(=O)n32)c1C	6.68 µM (active)

Memo: N=C(Nc1ccccc1)Nc1ccccc1 , reported EC50: 10.6 µM (active)

Memo: O=C(N/N=C/c1ccco1)C1COc2ccccc2O1 (stereo not drawn) , reported EC50: 4.22 µM (active)
